Cited source: patent US10144713B1

System: human red blood cells (hRBCs)
Assay: Hemolytic assay
Format: cell-based
Conditions: text b247, unit as printed
Measured metric: HC50 (µg/mL)
Kindly provide the numeric value in µg/mL only, without the unit symbol.

Form: Entry = `N=C1N(CC(=O)NCCCCCCNC(=O)CN2C[C@H](Cc3ccccc3)N(CCCc3ccccc3)C2=N)C[C@H](Cc2ccccc2)N1CCCc1ccccc1` | System = human red blood cells (hRBCs) | HC50 = ____
100

----------
Measured metric: MIC

Give the reported MIC for CCCCCCCCCC(=O)N[C@@H](Cc1c[nH]c2ccccc12)C(=O)N[C@H](CC(N)=O)C(=O)N[C@@H](CC(=O)O)C(=O)N[C@@H]1C(=O)NCC(=O)N[C@@H](CCCN)C(=O)N[C@@H](CC(=O)O)C(=O)N[C@H](C)C(=O)N[C@@H](CC(=O)O)C(=O)NCC(=O)N[C@H](CO)C(=O)N[C@@H]([C@H](C)CC(=O)O)C(=O)N[C@@H](CC(=O)c2ccccc2N)C(=O)O[C@@H]1C [Daptomycin, reference compound] (system: K. pneumoniae (ATCC 13383)).
> 50 µg/mL

Any idea what MIC came out for N=C1N(CC(=O)Nc2cccc(NC(=O)CN3C[C@H](Cc4ccccc4)N(CCCC4CCCCC4)C3=N)c2)C[C@H](Cc2ccccc2)N1CCCC1CCCCC1 [Compound 20] on K. pneumoniae (ATCC 13383)?
1.5 to 3 µg/mL

Query the reported MIC for K. pneumoniae (ATCC 13383); item: CCCCCCN1C(=N)N(CC(=O)NCCCCNC(=O)CN2C[C@H](Cc3ccccc3)N(CCCCCC)C2=N)C[C@@H]1Cc1ccccc1 [Compound 13]
6 to 12 µg/mL

What value of MIC on K. pneumoniae (ATCC 13383) does CCCCCCN1C(=N)N(CC(=O)Nc2cccc(NC(=O)CN3C[C@H](Cc4ccccc4)N(CCCCCC)C3=N)c2)C[C@@H]1Cc1ccccc1 [Compound 12] have?
0.75 µg/mL

Request: MIC, test system K. pneumoniae (ATCC 13383), entry CCN1C(=N)N(CC(=O)Nc2cccc(NC(=O)CN3C[C@H](Cc4ccccc4)N(CC)C3=N)c2)C[C@@H]1Cc1ccccc1 [Compound 4]
> 25 µg/mL
